System: U251 CNS
Assay: NCI tumour cell line growth inhibition, 48 h
Recorded TGI by entry

Known results for compounds:
GET /value?item= O=C1C(Cl)=C(Nc2cccc(Cl)c2)C(=O)N1Cc1ccccc1Cl &field=TGI returns 11.3 µM

Record OC1(c2ccccc2)CC2CCC(C1)N2CCCC1(c2ccc(F)cc2)OCCO1 (stereo not drawn) , field TGI: > 100 µM

// recorded TGI for CC(=O)[CH-]C(=O)c1ccccc1.CC(=O)[CH-]C(=O)c1ccccc1.CC(C)CCCC(C)[C@H]1CCC2[C@@H]3CC=C4C[C@@H]([O-])CC[C@]4(C)C3CC[C@@]21C.CC[O-].[Ti+4] (stereo partly drawn) : > 100 µM

***
Lookup result for NC(=O)C(N)=O ; measured TGI: > 100 µM

Memo: COc1ccc(C(=O)Cn2c(C(=O)/C=C/c3ccco3)nc3ccccc32)cc1 , reported TGI: > 100 µM

Value of TGI reported for the compound COc1cc(/C=C2\C[C@H]3[C@@H]4CC=C5C=C(N6CCCC6)CC[C@]5(C)[C@H]4CC[C@]3(C)C2=O)cc(OC)c1OC is 4.7 µM

For reference, reported TGI for Clc1cc(Cc2cc(Cl)c(Cl)c3c2OCOC3)c2c(c1Cl)COCO2 stands at > 100 µM

Looking up O=NNc1ccc(S(=O)(=O)c2ccccc2)cn1 , I see its TGI listed as > 100 µM
